Biological target: FGF receptor/BKL complex
Sequence (Q86Z14 whole entry, one chain of several): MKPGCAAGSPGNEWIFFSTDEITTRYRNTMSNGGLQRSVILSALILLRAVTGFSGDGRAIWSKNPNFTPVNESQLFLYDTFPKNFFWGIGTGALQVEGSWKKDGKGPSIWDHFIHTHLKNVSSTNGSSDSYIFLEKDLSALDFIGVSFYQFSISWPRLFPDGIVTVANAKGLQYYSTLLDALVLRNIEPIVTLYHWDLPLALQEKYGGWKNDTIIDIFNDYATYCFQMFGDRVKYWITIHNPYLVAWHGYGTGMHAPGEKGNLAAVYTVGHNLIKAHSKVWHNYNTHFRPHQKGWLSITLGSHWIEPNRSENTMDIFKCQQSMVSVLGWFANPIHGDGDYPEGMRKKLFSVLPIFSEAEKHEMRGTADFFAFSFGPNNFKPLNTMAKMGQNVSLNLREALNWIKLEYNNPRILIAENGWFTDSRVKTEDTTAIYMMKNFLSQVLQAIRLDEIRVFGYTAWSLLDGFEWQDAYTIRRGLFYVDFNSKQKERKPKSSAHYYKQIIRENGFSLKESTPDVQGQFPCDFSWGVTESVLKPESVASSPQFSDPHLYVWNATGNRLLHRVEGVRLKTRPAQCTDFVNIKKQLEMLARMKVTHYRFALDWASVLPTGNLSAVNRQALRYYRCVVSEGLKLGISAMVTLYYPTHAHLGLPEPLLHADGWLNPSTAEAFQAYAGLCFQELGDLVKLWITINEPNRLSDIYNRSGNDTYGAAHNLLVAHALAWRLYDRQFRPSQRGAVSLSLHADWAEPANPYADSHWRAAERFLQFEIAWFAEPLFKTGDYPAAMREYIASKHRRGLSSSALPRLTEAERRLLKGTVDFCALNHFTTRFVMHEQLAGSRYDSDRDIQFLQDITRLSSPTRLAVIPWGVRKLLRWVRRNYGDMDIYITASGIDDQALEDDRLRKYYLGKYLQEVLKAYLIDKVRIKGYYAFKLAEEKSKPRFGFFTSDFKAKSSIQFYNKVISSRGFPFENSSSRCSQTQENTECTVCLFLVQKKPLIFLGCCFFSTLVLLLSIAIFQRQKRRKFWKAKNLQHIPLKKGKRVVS
Test: FGF receptor potency in an Erk phosphorylation assay in HEK293 overexpressing human BKL
Type: cell-based
Conditions: HEK293/BKL cells, pERK after 12 minutes, absence of HSA; read-out: EC50
Procedure: In order to test the binding of the FGF21 derivatives to albumin, the assay was performed in the absence of serum albumin as well as in the presence of human serum albumin (HSA) (0.1% final assay concentration). […] HEK293 cells endogenously express several FGF receptors, including FGFR1c, FGFR3c and FGFR4. […] As described below the level of pERK is measured after 12 minutes of stimulation with a range of FGF21 analogue concentrations. […]
Listing: pEC50 of selected molecules
Remember, pEC50 is on a log scale: it is -log10 of the molar concentration.

S{Beta-173}-[2-[2-[[2-[2-[2-[[2-[2-[2-[[(4S)-4-carboxy-4-(15-carboxypentadecanoyl-amino)butanoyl]amino]ethoxy]ethoxy]acetyl]amino]ethoxy]ethoxy]acetyl]amino]-ethylamino]-2-oxoethyl]-Ala[Gln121,Leu168, … (protein) HPIPDSSPLLQFGGQVRQRYLYTDDAQQTEAHLEIREDGTVGGAADQSPESLLQLKALKPGVIQILGVKTSRFLCQRPDGALYGSLHFDPEACSFRELLLEDGYNVYQSEAHGLPLHLPGQKSPHRDPAPRGPARFLPLPGLPPALPEPPGILAPQPPDVGSSDPLSLVGPSCGRSPSYAS :: 8.52

Okay, next one:
get_value(item= S{Beta-178}-2-aminoethylsulfanyl-Ala[Gln121, Leu168, Cys178]FGF21 (protein, N-terminal Ala; cysteamine disulfide on Cys178) AHPIPDSSPLLQFGGQVRQRYLYTDDAQQTEAHLEIREDGTVGGAADQSPESLLQLKALKPGVIQILGVKTSRFLCQRPDGALYGSLHFDPEACSFRELLLEDGYNVYQSEAHGLPLHLPGQKSPHRDPAPRGPARFLPLPGLPPALPEPPGILAPQPPDVGSSDPLSLVGPSQGRSPCYAS , readout=pEC50) returns 6.98
